Values from ChEMBL document CHEMBL5321200

test system: NCI-H2228; test: Antiproliferative activity against human NCI-H2228 cells assessed as inhibition of cell growth incubated for 3 to 5 days by MTT assay; type: functional, cell-based
RECORDED_ENDPOINT: IC50

input: Data request, read-out IC50, for CC(=O)c1c(C)c2cnc(Nc3ccc(N4CCN(CC(=O)NCCSSCCN(CC(=O)NCCNc5cccc6c5C(=O)N(C5CCC(=O)NC5=O)C6=O)C(=O)CCCCCCCCCCC(=O)N5CCC(c6cc(OC(C)C)c(Nc7ncc(Cl)c(Nc8ccccc8S(=O)(=O)C(C)C)n7)cc6C)CC5)CC4)cn3)nc2n(C2CCCC2)c1=O (centres undefined)
output: 25.8 µM

input: Thanks! And CC(=O)c1c(C)c2cnc(Nc3ccc(N4CCN(CC(=O)NCCSSCCN(CC(=O)NCCNc5cccc6c5C(=O)N(C5CCC(=O)NC5=O)C6=O)C(=O)CCCCCCCCC(=O)N5CCC(c6cc(OC(C)C)c(Nc7ncc(Cl)c(Nc8ccccc8S(=O)(=O)C(C)C)n7)cc6C)CC5)CC4)cn3)nc2n(C2CCCC2)c1=O (centres undefined) ?
output: 15.4 µM

input: Thanks! And CC(=O)c1c(C)c2cnc(Nc3ccc(N4CCN(CC(=O)NCCSSCCN(CC(=O)Nc5cccc6c5C(=O)N(C5CCC(=O)NC5=O)C6=O)C(=O)CCCCCCCCC(=O)N5CCC(c6cc(OC(C)C)c(Nc7ncc(Cl)c(Nc8ccccc8S(=O)(=O)C(C)C)n7)cc6C)CC5)CC4)cn3)nc2n(C2CCCC2)c1=O (centres undefined) ?
output: > 50 µM

input: Thanks! And CC(=O)c1c(C)c2cnc(Nc3ccc(N4CCN(CC(=O)NCCSSCCN(CC(=O)NCCNc5cccc6c5C(=O)N(C5CCC(=O)NC5=O)C6=O)C(=O)CCCCCCC(=O)N5CCC(c6cc(OC(C)C)c(Nc7ncc(Cl)c(Nc8ccccc8S(=O)(=O)C(C)C)n7)cc6C)CC5)CC4)cn3)nc2n(C2CCCC2)c1=O (centres undefined) ?
output: 5.56 µM
